run_description: Ames test: mutagenicity
Type: cell-based
condition_summary: classical Ames test
parameter: Ames test: mutagenicity

[[record]]
mol_smiles = "Nc1c(S(=O)(=O)O)cc(/N=N/c2c(S(=O)(=O)O)cc(NC3CCCCC3)c3c2C(=O)c2ccccc2C3=O)c2c1C(=O)c1ccccc1C2=O"
parameter = "Ames test: mutagenicity"
measured_value = "Negative"

[[record]]
mol_smiles = "CCN(CCO)c1ccc(N=Nc2ccc([N+](=O)[O-])cc2)cc1"
parameter = "Ames test: mutagenicity"
measured_value = "Negative"

[[record]]
mol_smiles = "O=C(Nc1cc(S(=O)(=O)[O-])cc2cc(S(=O)(=O)[O-])c(N=Nc3cc(Nc4nc(Cl)nc(Nc5ccc(S(=O)(=O)[O-])cc5)n4)ccc3S(=O)(=O)[O-])c(O)c12)c1ccccc1.[Na+].[Na+].[Na+].[Na+]"
parameter = "Ames test: mutagenicity"
measured_value = "Negative"


====

System: fish eggs cells
run_description: Fish egg test
Type: in vivo
condition_summary: in vivo
Listing of recorded Fish egg test (IC50 in mg L^−1) by entry.
parameter: Fish egg test (IC50 in mg L^−1)

[[record]]
mol_smiles = "O=C(Nc1cc(S(=O)(=O)[O-])cc2cc(S(=O)(=O)[O-])c(N=Nc3cc(Nc4nc(Cl)nc(Nc5ccc(S(=O)(=O)[O-])cc5)n4)ccc3S(=O)(=O)[O-])c(O)c12)c1ccccc1.[Na+].[Na+].[Na+].[Na+]"
measurement_target = "fish eggs cells"
parameter = "Fish egg test (IC50 in mg L^−1)"
measured_value = "500 to 1000 mg/L"

[[record]]
mol_smiles = "Nc1ccc2cc(S(=O)(=O)[O-])cc(O)c2c1N=Nc1ccc(Cl)cc1C(F)(F)F.[Na+]"
measurement_target = "fish eggs cells"
parameter = "Fish egg test (IC50 in mg L^−1)"
measured_value = "250 to 500 mg/L"

[[record]]
mol_smiles = "CCN(CCO)c1ccc(N=Nc2ccc([N+](=O)[O-])cc2)cc1"
measurement_target = "fish eggs cells"
parameter = "Fish egg test (IC50 in mg L^−1)"
measured_value = "250 to 500 mg/L"

[[record]]
mol_smiles = "Nc1c(N=Nc2ccc(-c3ccc(N=Nc4cc(S(=O)(=O)[O-])c5ccccc5c4N)cc3)cc2)cc(S(=O)(=O)[O-])c2ccccc12.[Na+].[Na+]"
measurement_target = "fish eggs cells"
parameter = "Fish egg test (IC50 in mg L^−1)"
measured_value = "<30 mg/L"


====

run_description: Caco-2 cytotoxicity test
Format: cell-based, human
condition_summary: Caco-2 cells; Caco-2 human intestinal cells; read-out: Caco-2 cytotoxicity test (IC50 in g L^−1)
parameter: IC50

[[record]]
mol_smiles = "Nc1c(S(=O)(=O)O)cc(/N=N/c2c(S(=O)(=O)O)cc(NC3CCCCC3)c3c2C(=O)c2ccccc2C3=O)c2c1C(=O)c1ccccc1C2=O"
measured_value = "> 1000 mg/L"

